Kindly state Solubility in water for each of the entries shown.
Test: Test for water solubility
Assay type: physicochemical
Conditions: 20° C.
Source text: 3. Test for water solubility A standard plot of UV absorbance(220 nm) vs. concentration was made; and employed to determine water-solubility. The mixture was then passed through a 0.45 micron disposable membrane filter before dilution and UV measurement.

Take a look at these entries with their results.
compound="CCC1OC2C[NH2+][Pt-2]3([NH2+]CC2O1)[O]C(=O)C1(CCC1)C(=O)[O]3 (centres unmarked) [Example 25]" test_readout="Solubility in water" data_value="11800 µg/mL"
compound="CCC1O[C@H](CN)[C@@H](CN)O1.O=C1C[O][Pt][O]1 [Example 6]" test_readout="Solubility in water" data_value="> 50000 µg/mL"
compound="CC(C)C1OC2C[NH2+][Pt-2]3([NH2+]CC2O1)[O]C(=O)C1(CCC1)C(=O)[O]3 (centres unmarked) [Example 29]" test_readout="Solubility in water" data_value="2000 µg/mL"

Value sought for every listed compound: Solubility in water.
1. CCC1C(=O)[O][Pt-2]2([NH2+]CC3OC(C(C)C)OC3C[NH2+]2)[O]C1=O (centres unmarked) [Example 44]
2. O=C1[O][Pt-2]2([NH2+]CC3OC4(CCCCC4)OC3C[NH2+]2)[O]C(=O)C12CCC2 (centres unmarked) [Example 32]
3. O=C1[O][Pt-2]2([NH2+]CC3OCOC3C[NH2+]2)[O]C(=O)C12CCC2 (centres unmarked) [Example 21]
4. NC[C@@H]1OC2(CCCCC2)O[C@H]1CN.O=C1[O][Pt][O]C(=O)C12CCC2 [Example 46]
5. CC1OC2C[NH2+][Pt-2]3([NH2+]CC2O1)[O]C(=O)C1(CCC1)C(=O)[O]3 (centres unmarked) [Example 23]

7800 µg/mL
900 µg/mL
3100 µg/mL
900 µg/mL
22100 µg/mL

* * *

system: murine leukemia L1210; test: Antitumor activity test on murine leukemia L1210 in vivo; set-up: species or system male BDF1 mice; details: 6.2 mg/kg i.p., days 1, 5, 9
Kindly state T/C (%) for each of the entries shown.
Numbers only, in %.

molecule="NC[C@H]1OC2(CCCC2)O[C@@H]1CN.O=C1C[O][Pt][O]1 [Example 3]" target_system="murine leukemia L1210" u=% data_value=161
molecule="O=C1[O][Pt-2]2([NH2+]CC3OC4(CCCC4)OC3C[NH2+]2)[O]C(=O)C12CCC2 (stereo not drawn) [Example 31]" target_system="murine leukemia L1210" u=% data_value=102

# ---- query molecule ----
Suppose we examine the molecule CC1OC2C[NH2+][Pt-2]3([NH2+]CC2O1)[O]C(=O)C1(CCC1)C(=O)[O]3 (stereo not drawn) [Example 22] ; what T/C (%) value has been reported?
125

* * *

Kindly state Lethality for each of the entries shown.
tested on: ICR mice; assay: Acute toxicity test; assay type: in vivo; parameters: unit not given here; conditions: female, 270 mg/kg i.p.; 10080 min
Numbers only.

Take a look at these entries with their results.
compound="CC1OC2C[NH2+][Pt-2]3([NH2+]CC2O1)[O]C(=O)C1(CCC1)C(=O)[O]3 (centres unmarked) [Example 22]" target_system="ICR mice" test_readout=Lethality data_value=100.0
compound="O=C1[O][Pt-2]2([NH2+]CC3OC4(CCCC4)OC3C[NH2+]2)[O]C(=O)C12CCC2 (centres unmarked) [Example 30]" target_system="ICR mice" test_readout=Lethality data_value=100.0
compound="CCC1OC2C[NH2+][Pt-2]3([NH2+]CC2O1)[O]C(=O)C1(CCC1)C(=O)[O]3 (centres unmarked) [Example 24]" target_system="ICR mice" test_readout=Lethality data_value=50.0
compound="O=C1[O][Pt-2]2([NH2+]CC3OCOC3C[NH2+]2)[O]C(=O)C12CCC2 (centres unmarked) [Example 20]" target_system="ICR mice" test_readout=Lethality data_value=100.0

# ---- query compound ----
Suppose we examine the compound CC1(C)OC2C[NH2+][Pt-2]3([NH2+]CC2O1)[O]C(=O)C1(CCC1)C(=O)[O]3 (centres unmarked) [Example 26] ; what Lethality value has been reported?
16.7

* * *

Kindly state Number of dead mice, 1st day for each of the entries shown.
system: ICR mice; assay: Acute toxicity test; assay type: in vivo; conditions: female, 208 mg/kg i.p.

Take a look at these entries with their results.
compound="CC1(C)OC2C[NH2+][Pt-2]3([NH2+]CC2O1)[O]C(=O)C1(CCC1)C(=O)[O]3 (centres unmarked)" data_value=0/6
compound="CC1OC2C[NH2+][Pt-2]3([NH2+]CC2O1)[O]C(=O)C1(CCC1)C(=O)[O]3 (centres unmarked)" data_value=0/6
compound="O=C1[O][Pt-2]2([NH2+]CC3OC4(CCCC4)OC3C[NH2+]2)[O]C(=O)C12CCC2 (centres unmarked)" data_value=0/6

Value sought for every listed compound: Number of dead mice, 1st day.
1. CCC1OC2C[NH2+][Pt-2]3([NH2+]CC2O1)[O]C(=O)C1(CCC1)C(=O)[O]3 (centres unmarked)
2. O=C1[O][Pt-2]2([NH2+]CC3OCOC3C[NH2+]2)[O]C(=O)C12CCC2 (centres unmarked)

["0/6", "0/6"]

* * *

test system: ICR mice; experiment: Acute toxicity test; type: in vivo; conditions: female, 71.4 mg/kg i.p.
Kindly state Number of dead mice, 4th day for each of the entries shown.

Take a look at these entries with their results.
compound="CC1[O][Pt][O]C1=O.NCC1OC2(CCCC2)OC1CN (stereo not shown)" data_value=1/6
compound=NC[C@H]1OC2(CCCC2)O[C@@H]1CN.O=C1C[O][Pt][O]1 data_value=2/2
compound=CC(C)C1O[C@H](CN)[C@@H](CN)O1.O=C1C[O][Pt][O]1 data_value=1/3
compound="CC(C)C1OC(CN)C(CN)O1.CC1[O][Pt][O]C1=O (stereo not shown)" data_value=1/6
compound="CC1[O][Pt][O]C1=O.CCC1OC(CN)C(CN)O1 (stereo not shown)" data_value=1/6
compound=CC1(C)O[C@H](CN)[C@@H](CN)O1.O=C1C[O][Pt][O]1 data_value=2/2

Value sought for every listed compound: Number of dead mice, 4th day.
1. NC[C@H]1OC2(CCCCC2)O[C@@H]1CN.O=C1C[O][Pt][O]1
2. CCC1(C)OC2C[NH2+][Pt-2]3([NH2+]CC2O1)[O]CC(=O)[O]3 (stereo not shown)

1. 1/3
2. 3/5

Value sought for every listed compound: Number of dead mice, 4th day.
1. CCC1O[C@H](CN)[C@@H](CN)O1.O=C1C[O][Pt][O]1
2. CCC1(CC)OC2C[NH2+][Pt-2]3([NH2+]CC2O1)[O]CC(=O)[O]3 (stereo not shown)

1: 2/2; 2: 2/6

* * *

test system: ICR mice; test: Acute toxicity test; type: in vivo; design: unit not given here; conditions: male, 270 mg/kg i.p.; 10080 min
Test readout: Lethality
Give bare numbers.

Take a look at these entries with their results.
compound="CCC1OC2C[NH2+][Pt-2]3([NH2+]CC2O1)[O]C(=O)C1(CCC1)C(=O)[O]3 (centres unmarked) [Example 24]" test_readout=Lethality data_value=83.3
compound="O=C1[O][Pt-2]2([NH2+]CC3OCOC3C[NH2+]2)[O]C(=O)C12CCC2 (centres unmarked) [Example 20]" test_readout=Lethality data_value=100.0
compound="O=C1[O][Pt-2]2([NH2+]CC3OC4(CCCC4)OC3C[NH2+]2)[O]C(=O)C12CCC2 (centres unmarked) [Example 30]" test_readout=Lethality data_value=100.0
compound="CC1OC2C[NH2+][Pt-2]3([NH2+]CC2O1)[O]C(=O)C1(CCC1)C(=O)[O]3 (centres unmarked) [Example 22]" test_readout=Lethality data_value=100.0

# ---- query compound ----
Suppose we examine the compound CC1(C)OC2C[NH2+][Pt-2]3([NH2+]CC2O1)[O]C(=O)C1(CCC1)C(=O)[O]3 (centres unmarked) [Example 26] ; what Lethality value has been reported?
33.3

* * *

Kindly state Lethality for each of the entries shown.
system: ICR mice; assay: Acute toxicity test; format: in vivo; design: unit not given here; details: female, 54.9 mg/kg i.p.; 10080 min
Give bare numbers.

Take a look at these entries with their results.
compound="CC(C)C1OC(CN)C(CN)O1.CC1[O][Pt][O]C1=O (stereo not drawn)" data_value=66.7
compound="CCC1(CC)OC2C[NH2+][Pt-2]3([NH2+]CC2O1)[O]CC(=O)[O]3 (stereo not drawn)" data_value=50.0

# ---- query compound ----
Suppose we examine the compound CCC1(C)OC2C[NH2+][Pt-2]3([NH2+]CC2O1)[O]CC(=O)[O]3 (stereo not drawn) ; what Lethality value has been reported?
50.0
